Data credit: PubChem BioAssay (Tox21)

- target system: Cytochrome P450 2D6 (Homo sapiens)
- assay name: Cytochrome P450 Family 2 Subfamily D Member 6 (CYP2D6) small molecule antagonists: luciferase reporter qHTS assay (AID 1671196); note: nearly all actives have a fitted effect of over 50% in size
- setup conditions: P450-Glo CYP2D6 enzyme assay, luciferin luminescence, 1 h; series mostly up to 115 µM
Results filed as inconclusive are left out. Calls of active or inactive are those of the source. Calls come from the whole dose curve; as a rule, active = well fitted inhibition curve with a large enough effect in the repeat runs; inconclusive = weak or mixed curves; inactive = no such curve, though single readings can be large or run the other way.
Choose the fitting class; nothing outside True = active, False = inactive is accepted.

# molecule, cat
data = [
    ("COc1ccccc1N1CCN(CC(O)COc2cccc3ccccc23)CC1 (stereo not given)", "True"),
    ("Nc1ccc(N=Nc2ccccc2)c(N)c1", "True"),
    ("C=CC(C)(CCC=C(C)C)OC(=O)CC(C)C (stereo not given)", "False"),
    ("CC(=O)c1cc2ccccc2s1", "False"),
    ("Cc1cscn1", "False"),
]

Which outcome did this test record for the molecule `CS(=O)(=O)c1ccc(-c2cn3ccccc3n2)cc1` ?
True

Check the results log: what was the call for C=CCc1ccccc1OCC(O)CNC(C)C (stereo not given) ?
True

// outcome(item) with item = `COc1ncnc(NS(=O)(=O)c2ccc(N)cc2)c1OC`
False

Kindly provide the recorded test outcome for the following molecule: `C[C@]1(Cn2ccnn2)[C@H](C(=O)O)N2C(=O)C[C@H]2S1(=O)=O`
False

Call for entry `C[C@H]1c2cccc(O)c2C(O)=C2C(=O)[C@]3(O)C(O)=C(C(N)=O)C(=O)[C@@H](N(C)C)[C@@H]3[C@@H](O)[C@@H]21` :
False

What call does the record list for CN1CCCC(n2nc(Cc3ccc(Cl)cc3)c3ccccc3c2=O)CC1 (stereo not given) ?
True

// param item: `C[C@@H]1CN(CCCn2c3ccccc3c3ccccc32)C[C@H](C)N1` ; yields the recorded call
True

Can you look up the reported call for `CC(=O)OCC[N+](C)(C)C` for me?
False

Answer briefly: the call reported for `CN(C)CCC=C1c2ccccc2C=Cc2ccccc21` in this assay.
True

For `O[C@@H]1CO[C@H]2[C@@H]1OC[C@@H]2O` , what call appears in the results of this test?
False

Hello, I am checking results. What call was entered for `c1ccc(C[n+]2cccc3ccccc32)cc1` ?
True

What did this assay record as the result for `O=C=Nc1cccc(C(F)(F)F)c1` ?
False

What call does the record list for `O=C1NCCN1CCO` ?
False

----------
- target system: Thyrotropin receptor (Homo sapiens) (UniProt P16473)
- Sequence (P16473 whole entry, looked up): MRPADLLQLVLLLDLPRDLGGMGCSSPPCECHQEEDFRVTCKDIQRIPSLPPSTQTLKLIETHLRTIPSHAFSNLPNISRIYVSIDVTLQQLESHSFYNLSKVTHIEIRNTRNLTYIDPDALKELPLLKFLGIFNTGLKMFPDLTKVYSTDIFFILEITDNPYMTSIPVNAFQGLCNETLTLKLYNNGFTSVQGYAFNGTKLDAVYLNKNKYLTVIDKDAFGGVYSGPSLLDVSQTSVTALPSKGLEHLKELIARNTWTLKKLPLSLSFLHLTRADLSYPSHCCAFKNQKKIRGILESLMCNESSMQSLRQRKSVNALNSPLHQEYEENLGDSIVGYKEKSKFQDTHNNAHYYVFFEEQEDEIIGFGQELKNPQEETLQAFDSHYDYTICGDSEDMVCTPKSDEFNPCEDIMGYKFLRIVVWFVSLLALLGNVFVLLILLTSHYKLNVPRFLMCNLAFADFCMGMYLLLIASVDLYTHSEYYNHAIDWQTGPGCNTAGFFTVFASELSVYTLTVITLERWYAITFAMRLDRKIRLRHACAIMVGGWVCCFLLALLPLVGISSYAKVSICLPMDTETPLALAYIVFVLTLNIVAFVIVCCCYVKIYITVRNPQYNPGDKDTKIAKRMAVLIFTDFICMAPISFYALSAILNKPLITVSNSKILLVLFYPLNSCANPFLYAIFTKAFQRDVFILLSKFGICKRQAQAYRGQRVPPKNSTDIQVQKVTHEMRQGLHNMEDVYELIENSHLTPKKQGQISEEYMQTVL
- assay name: qHTS assay to identify small molecule agonists of the thyroid stimulating hormone receptor (TSHR) signaling pathway (AID 1224843); note: nearly all actives have a fitted effect of over 45% in size
- setup conditions: TSHR-HEK293 cells, cAMP HTRF, agonist mode, 30 min; series mostly up to 92.4 µM
Results filed as inconclusive are left out. Active and inactive are the calls of the source. Calls come from the whole dose curve.
Use one of these outcomes when replying: 1.0 = active, 0.0 = inactive

Examples with answers:
# structure string, cat
records = [
    ("CCn1cc(C(=O)O)c(=O)c2cc(F)c(N3CCNCC3)cc21", 0.0),
    ("COC(=O)CS", 0.0),
    ("C=C1C[C@@]23CC[C@H]4[C@@](C)(CCC[C@@]4(C)C(=O)O[C@@H]4O[C@H](CO)[C@@H](O)[C@H](O)[C@H]4O)[C@@H]2CC[C@]1(O[C@@H]1O[C@H](CO)[C@@H](O)[C@H](O[C@@H]2O[C@H](CO)[C@@H](O)[C@H](O)[C@H]2O)[C@H]1O[C@@H]1O[C@H](CO)[C@@H](O)[C@H](O)[C@H]1O)C3", 0.0),
    ("CCCCCCCCCCC(=O)O", 0.0),
    ("C[C@@H]1CC(=O)NN=C1c1ccc(NN=C(C#N)C#N)cc1", 1.0),
    ("O=C(Nc1cccc2c(=O)cc(-c3nn[nH]n3)oc12)c1ccc(OCCCCc2ccccc2)cc1", 0.0),
    ("Clc1ccc(Nc2nnc(Cc3ccncc3)c3ccccc23)cc1", 0.0),
    ("Cc1ccc(C(C)(C)O)cc1", 0.0),
    ("Oc1cccc(Nc2ccccc2)c1", 0.0),
]

Now let's try a different one.
Returns: the outcome recorded for `O=C=Nc1cccc(C(F)(F)F)c1` in this assay.
0.0

----------
- assay name: qHTS assay for identifying genotoxic compounds that show differential cytotoxicity against isogenic chicken DT40 cell lines with known DNA damage response pathways - wild type cell line (AID 743012); note: nearly all actives have a fitted effect of over 60% in size
- setup conditions: DT40 wild type chicken cells viability, CellTiter-Glo, 40 h; series mostly up to 68.4 µM
Results filed as inconclusive are left out. Calls of active or inactive are those of the source. The call rests on the fitted dose curve; in most records, active means well fitted cell-killing curve with a large enough effect in the repeat runs; inconclusive means weak or mixed curves, or effect the other way; inactive means no such curve, though single readings can be large or run the other way.
Choose the fitting class; nothing outside YES (active), NO (inactive) is accepted.

GET /call?item= `CCOC(=O)/C=C/C(=O)OCC` returns the recorded outcome of this test.
NO

State the result this test recorded for `O=C1NC(=O)c2cc([N+](=O)[O-])ccc21` .
NO

Returns: the outcome recorded for `O=C1Cc2ccccc2N1c1c(Cl)cccc1Cl` in this assay.
YES

What classification did `O=C1c2ccccc2C(=O)N1CCc1noc(-c2ccc(CN3CCCCCC3)s2)n1` end up with in this test?
YES

Please indicate how the test categorized `OCCN1CCN(CCCN2c3ccccc3Sc3ccc(Cl)cc32)CC1` .
YES

Outcome logged for `CC1(C)[C@H](C(=O)O)N2C(=O)C[C@H]2S1(=O)=O` in this assay:
NO

Look up the recorded call for `CC1=C(Br)C(=O)C(Br)=C/C1=C(/c1ccccc1S(=O)(=O)O)c1cc(Br)c(O)c(Br)c1C` in this test.
YES

----------
- assay name: A CellTox Green Cytotoxicity Assay to monitor cytotoxicity in HepG2 cells - 16 hour (AID 1224876); note: nearly all actives have a fitted effect of over 45% in size
- setup conditions: CellTox Green fluorescence; series mostly up to 76.8 µM
Records with an inconclusive call do not appear. Calls of active or inactive are those of the source. Calls follow the shape of the dose curve; as a rule, active = well fitted activation curve with a large enough effect in the repeat runs; inconclusive = weak or mixed curves; inactive = flat fitted curve, though single readings scatter.
// one of YES (active), NO (inactive), no free text

Example entries and their recorded answers appear below.
# molecule, cat
records = [
    ("OC1(c2ccccc2)CCNCC1", "NO"),
    ("C/C=C(/C(=C/C)c1ccc(O)cc1)c1ccc(O)cc1", "YES"),
    ("Cc1cc2c(OCC(CNC(C)(C)C)OC(=O)c3ccccc3)cccc2[nH]1 (stereo unspecified)", "NO"),
    ("CCCCN(CCCC)C(C(N)=O)c1ccc(OC)cc1 (stereo unspecified)", "NO"),
    ("CN1CCCN=C1COC(=O)C(O)(c1ccccc1)C1CCCCC1 (stereo unspecified)", "NO"),
    ("CO[C@]1(NC(=O)CSC(F)F)C(=O)N2C(C(=O)O)=C(CSc3nnnn3CCO)CO[C@H]21", "NO"),
]

Returns: the outcome recorded for `CCN(CC)CCNC(=O)COc1ccc(OC)cc1` in this assay.
NO

Query: recorded result category for `COc1ccc(OC(=O)N(CC(=O)O)Cc2ccc(OCCc3nc(-c4ccccc4)oc3C)cc2)cc1` in this test
NO

Please indicate how the test categorized CC(C)C(O)(c1ccc(OC(F)(F)F)cc1)c1cncnc1 (stereo unspecified) .
NO

Answer briefly: the call reported for `CCC=CC#N` in this assay.
NO

What outcome does the record of this test show for `CC(C)C[C@H](NC(=O)[C@H](CCc1ccccc1)NC(=O)CN1CCOCC1)C(=O)N[C@@H](Cc1ccccc1)C(=O)N[C@@H](CC(C)C)C(=O)[C@@]1(C)CO1` ?
YES

----------
- assay name: qHTS assay to identify small molecule agonists of the RXR signaling pathway - cell viability counter screen (AID 1159529); note: nearly all actives have a fitted effect of over 50% in size
- setup conditions: RXR-alpha-bla HEK293T viability, CellTiter-Glo, 16 h; series mostly up to 76.8 µM
Results filed as inconclusive are left out. The source made the active and inactive calls. The call rests on the fitted dose curve; in most records, active means well fitted cell-killing curve with a large enough effect in the repeat runs; inconclusive means weak or mixed curves, or effect the other way; inactive means no such curve, though single readings can be large or run the other way.
A correct response names exactly one class from 1 (yes) for active, 0 (no) for inactive

# compound, cat
data = [
    ("Nc1nnc(-c2ccc([N+](=O)[O-])o2)o1", "0 (no)"),
]

Give the logged outcome of this assay for the following compound: `O=c1cc(-c2ccccc2)oc2ccc3ccccc3c12`
1 (yes)

Name the outcome recorded for CC1(C)S[C@@H]2[C@H](NC(=O)C(c3ccccc3)S(=O)(=O)O)C(=O)N2[C@H]1C(=O)O (stereo not given in full) in the assay.
0 (no)

Call for entry `CCOC(=O)c1ccc(OCCN2C[C@H](O)[C@@H](O)[C@H](O)[C@H]2CO)cc1` :
0 (no)

Dear colleague, could you share the recorded outcome for `CC(=O)c1ccc([N+](=O)[O-])cc1` when you have a moment?
0 (no)

Test call for this compound, please: `CC(C)(C)C(=O)C(=O)O`
0 (no)

Recorded test outcome, item `CO/N=C(/C(=O)N[C@@H]1C(=O)N2C(C(=O)O)=C(COC(N)=O)CS[C@H]12)c1ccco1`
0 (no)

----------
- assay name: qHTS assay to identify small molecule agonists of H2AX - cell viability counter screen (AID 1224847); note: nearly all actives have a fitted effect of over 30% in size
- setup conditions: CHO-K1 viability, CellTiter-Glo luminescence, 3 h; series mostly up to 154 µM
Inconclusive results are not listed. Calls of active or inactive are those of the source. Calls follow the shape of the full dose curve.
Hello, when you answer, please use one of the following outcomes: active, inactive

Example results:
# compound, cat
rows = [
    ("CCCCCC[C@@H](O)C/C=C\\CCCCCCCC(=O)OCC(O)CO (stereo partly drawn)", "inactive"),
    ("COc1cc(Nc2c(C#N)cnc3cc(OCCCN4CCN(C)CC4)c(OC)cc23)c(Cl)cc1Cl", "active"),
    ("O=c1[nH]ncc2ccccc12", "inactive"),
    ("O=C(O)CCC(=O)C(=O)O", "inactive"),
    ("CC(C)(c1ccccc1)c1ccccc1", "inactive"),
]

What did this assay record as the result for `CCOC(=O)c1ccc(I)cc1` ?
inactive

I would be grateful if you could indicate the recorded call for C=C1CCC2CC1C2(C)C (stereo not drawn) .
inactive

Record lookup: outcome of this test for CC(C)COCC(CN(Cc1ccccc1)c1ccccc1)N1CCCC1 (stereo not drawn) ?
active

Given `Cc1cc(O)ccc1O` , state the outcome it received in this test.
active

Assay outcome for `COc1ncnc(NS(=O)(=O)c2ccc(N)cc2)c1OC` : what was it?
inactive

Per the records of this test, what outcome belongs to `Nc1nc2ccc([N+](=O)[O-])cc2s1` ?
inactive

Any idea what this test logged for `C[C@]12CC[C@@H]3c4ccc(O)cc4CC[C@H]3[C@@H]1CC[C@@H]2OC(=O)CCC1CCCC1` ?
active

What did the test return for `O=C(/C=C/c1ccc(O)c(O)c1)O[C@@H]1C[C@@](OC(=O)/C=C/c2ccc(O)c(O)c2)(C(=O)O)C[C@@H](O)[C@@H]1O` ?
inactive

Status in this test for `CC(=O)OCCN(CCOC(C)=O)c1ccc(N=Nc2ccc([N+](=O)[O-])cc2C#N)cc1` ?
active
